Cited source: patent US9163021B2

biological target: TRKA (Homo sapiens (Human), UniProt P04629); assay: Isolated TRK enzyme assay (HTRF KinEASE-TK), PV3144 TrkA enzyme assay; conditions: arithmetic mean where more than one reading
Sequence (P04629 441-796): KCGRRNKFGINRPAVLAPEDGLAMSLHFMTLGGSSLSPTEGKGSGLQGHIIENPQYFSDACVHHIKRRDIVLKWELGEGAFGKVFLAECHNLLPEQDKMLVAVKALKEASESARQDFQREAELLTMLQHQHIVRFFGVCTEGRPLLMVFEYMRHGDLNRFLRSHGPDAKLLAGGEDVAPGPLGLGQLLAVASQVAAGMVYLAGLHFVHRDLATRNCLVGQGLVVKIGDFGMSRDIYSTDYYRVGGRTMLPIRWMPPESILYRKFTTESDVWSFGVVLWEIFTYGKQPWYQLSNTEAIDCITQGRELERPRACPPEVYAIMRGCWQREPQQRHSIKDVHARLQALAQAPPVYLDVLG
Recorded pIC50, one value per entry.
pIC50 here is simply -log10 of the concentration when that concentration is written in mol/L.

The following compounds have reported results that may help.
> print(dat)
                                   compound                                testtarget  measuredendpoint  numericresult
1  CC(CO)n1cc(C(=O)c2cncc(NC(=O)Cn3cc(C(F)(F)F)nn3)c2)c2cnccc21 (single isomer, unassigned) [Example 69]  TRKA (Homo sapiens (Human), UniProt P04629)             pIC50           7.11
2  CC(CO)n1cc(C(=O)c2cncc(NC(=O)Cn3cc(C4CC4)nn3)c2)c2cncc(F)c21 (single isomer, unassigned) [Example 207]  TRKA (Homo sapiens (Human), UniProt P04629)             pIC50           6.75
3  CC(C)(CO)n1cc(C(=O)c2cc(NC(=O)Cc3cccc(C(F)(F)F)c3)ccn2)c2cnccc21 [Example 232]  TRKA (Homo sapiens (Human), UniProt P04629)             pIC50           7.95
4  Cc1n[nH]c(CC(=O)Nc2cc(C(=O)c3cn(C(C)C)c4ccncc34)ccn2)n1 [Example 184]  TRKA (Homo sapiens (Human), UniProt P04629)             pIC50           5.50
5  CC(C)(CO)n1cc(C(=O)c2cc(NC(=O)Cc3ccc(C(F)(F)F)cc3)ccn2)c2cnccc21 [Example 231]  TRKA (Homo sapiens (Human), UniProt P04629)             pIC50           7.89

Prompt line: Could you share which pIC50 value was measured for CC(C)n1cc(C(=O)c2ccnc(NC(=O)Cc3ccon3)c2)c2cnccc21 [Example 180] ?
Response line: 5.97

Prompt line: Could you share which pIC50 value was measured for CC(C)c1cn(CC(=O)Nc2cc(C(=O)c3cn(CCO)c4ccncc34)ccn2)nn1 [Example 159] ?
Response line: 6.57

* * *

target: TRKA (Homo sapiens (Human), UniProt P04629); test: Isolated TRK enzyme assay (HTRF KinEASE-TK), PV3144 TrkA enzyme assay; assay type: biochemical; conditions: arithmetic mean where more than one reading
Recorded IC50, one value per entry.
Just the number in µM, nothing appended.

The following molecules have reported results that may help.
> print(dat)
                                   molecule  numericresult
1  O=C(Cc1ccc(C(F)(F)F)cc1)Nc1cc(C(=O)c2cn(CCO)c3ccncc23)ccn1         0.0202
2  CC(C)n1cc(C(=O)c2cc(NC(=O)Cc3ccc(Cl)cn3)ccn2)c2cnccc21         0.0738
3  CC(C)n1cc(C(=O)c2cncc(NC(=O)Cc3nccn3C)c2)c2cnccc21           3.08
4  CC(C)n1cc(C(=O)c2cncc(NC(=O)Cc3coc(C4CC4)n3)c2)c2cnccc21          0.118

Prompt line: Could you share which IC50 value was measured for Cc1nccn1CC(=O)Nc1cncc(C(=O)c2cn(C(C)C)c3ccncc23)c1 ?
Response line: 9.15

Prompt line: Could you share which IC50 value was measured for CC(C)n1ncc(CC(=O)Nc2cncc(C(=O)c3cn(C(C)CO)c4ccncc34)c2)c1C(F)(F)F (single isomer, unassigned) [Example 64] ?
Response line: 0.105

Prompt line: Could you share which IC50 value was measured for CC(C)n1cc(C(=O)c2ccnc(NC(=O)Cc3ccc(F)cn3)c2)c2cnccc21 ?
Response line: 0.067
